Values compiled from patent US20240165259A1.

# Lookup of reported k2 (M^−1s^−1), second order rate constant keyed by entry
- run_description: Second-order kinetics of cyclooctyne hydroamination by N,N-diethylhydroxylamine (NMR; competition experiment for 10)
- Format: physicochemical
- test_parameters: equimolar cyclooctyne and N,N-diethylhydroxylamine, CD3CN, room temperature, NMR; error = standard deviation of the mean, triplicate
reported_metric: k2 (M^−1s^−1), second order rate constant (M⁻¹ s⁻¹)

OC1C#CCCCCC1 (stereo not shown) | 1.19
FC1C#CCCCCC1 (stereo not shown) | 2.71
CC(=O)OC1C#CCCCCC1 (stereo not shown) [compound 6, cyclooct-2-yn-1-yl acetate] | 2.13
C1#CC2(CCCCC1)OCCO2 [compound 5, 1,4-dioxaspiro[4.7]dodec-6-yne] | 1.20
